method: Selectivity index, ratio of CC50 for human HepG2 cells to IC50 for chloroquine-resistant Plasmodium falciparum W2
Format: toxicity
test_settings: read-out: Ratio CC50/IC50
result_type: selectivity ratio

* C=C(C)[C@@H]1CC[C@]2(C(=O)n3ccnc3)CC[C@]3(C)[C@H](CC[C@@H]4[C@@]5(C)CC[C@H](OC(=O)CCC)C(C)(C)[C@@H]5CC[C@]43C)[C@@H]12 | > 6.94
* CC(C)C(=O)O[C@H]1CC[C@]2(C)[C@H]3CC=C4[C@@H]5[C@@H](C)[C@H](C)CC[C@]5(C(=O)n5ccnc5)CC[C@@]4(C)[C@]3(C)CC[C@H]2C1(C)C | > 29.4
* C=C(C)[C@@H]1CC[C@]2(C(=O)O)CC[C@]3(C)[C@H](CC[C@@H]4[C@@]5(C)CC[C@H](OC(C)=O)C(C)(C)[C@@H]5CC[C@]43C)[C@@H]12 | > 6.11
* C=C(C)[C@@H]1CC[C@]2(C(=O)n3ccnc3)CC[C@]3(C)[C@H](CC[C@@H]4[C@@]5(C)CCC(=O)C(C)(C)[C@@H]5CC[C@]43C)[C@@H]12 | > 76.8
* C=C(C)[C@@H]1CC[C@]2(C(=O)n3ccnc3)CC[C@]3(C)[C@H](CC[C@@H]4[C@@]5(C)CC[C@H](OC(C)=O)C(C)(C)[C@@H]5CC[C@]43C)[C@@H]12 | > 44.9
* C[C@H]1[C@H](C)CC[C@]2(C(=O)n3ccnc3)CC[C@]3(C)C(=CC[C@@H]4[C@@]5(C)CCC(=O)C(C)(C)[C@@H]5CC[C@]43C)[C@H]12 | > 44.1
* C=C(C)[C@@H]1CC[C@]2(C(=O)O)CC[C@]3(C)[C@H](CC[C@@H]4[C@@]5(C)CC[C@H](OC(=O)C(C)C)C(C)(C)[C@@H]5CC[C@]43C)[C@@H]12 | > 33
* CCCC(=O)O[C@H]1CC[C@]2(C)[C@H]3CC=C4[C@@H]5[C@@H](C)[C@H](C)CC[C@]5(C(=O)O)CC[C@@]4(C)[C@]3(C)CC[C@H]2C1(C)C | > 30
* CC(=O)O[C@H]1CC[C@]2(C)[C@H]3CC=C4[C@@H]5[C@@H](C)[C@H](C)CC[C@]5(C(=O)n5ccnc5)CC[C@@]4(C)[C@]3(C)CC[C@H]2C1(C)C | > 7.9
* C=C(C)[C@@H]1CC[C@]2(C(=O)O)CC[C@]3(C)[C@H](CC[C@@H]4[C@@]5(C)CC[C@H](OC(=O)CCC)C(C)(C)[C@@H]5CC[C@]43C)[C@@H]12 | > 117

====

method: Selectivity index, ratio of CC50 for human HepG2 cells to IC50 for chloroquine-resistant Plasmodium falciparum W2
Type: toxicity
test_settings: read-out: Ratio CC50/IC50
result_type: selectivity ratio

• C=C(C)[C@@H]1CC[C@]2(C(=O)O)CC[C@]3(C)[C@H](CC[C@@H]4[C@@]5(C)CC[C@H](O)C(C)(C)[C@@H]5CC[C@]43C)[C@@H]12 [BETULINIC ACID] = > 31.4
• C[C@H]1[C@H](C)CC[C@]2(C(=O)O)CC[C@]3(C)C(=CC[C@@H]4[C@@]5(C)CC[C@H](O)C(C)(C)[C@@H]5CC[C@]43C)[C@H]12 [URSOLIC ACID] = 2.24
• C=C(C)[C@@H]1CC[C@]2(C(=O)O)CC[C@]3(C)[C@H](CC[C@@H]4[C@@]5(C)CCC(=O)C(C)(C)[C@@H]5CC[C@]43C)[C@@H]12 [BETUNOLIC ACID] = 19.1
• C[C@H]1[C@H](C)CC[C@]2(C(=O)O)CC[C@]3(C)C(=CC[C@@H]4[C@@]5(C)CCC(=O)C(C)(C)[C@@H]5CC[C@]43C)[C@H]12 [URSONIC ACID] = > 16.5
• C=C(C)[C@@H]1CC[C@]2(C(=O)n3ccnc3)CC[C@]3(C)[C@H](CC[C@@H]4[C@@]5(C)CC[C@H](OC(=O)C(C)C)C(C)(C)[C@@H]5CC[C@]43C)[C@@H]12 = > 13.5
• CCCC(=O)O[C@H]1CC[C@]2(C)[C@H]3CC=C4[C@@H]5[C@@H](C)[C@H](C)CC[C@]5(C(=O)n5ccnc5)CC[C@@]4(C)[C@]3(C)CC[C@H]2C1(C)C = > 38.5
• CC(=O)O[C@H]1CC[C@]2(C)[C@H]3CC=C4[C@@H]5[C@@H](C)[C@H](C)CC[C@]5(C(=O)O)CC[C@@]4(C)[C@]3(C)CC[C@H]2C1(C)C [O-ACETYLURSOLIC ACID] = > 44

====

method: Cytotoxicity against African green monkey Vero cells after 72 hrs by MTT assay
Format: cell-based
test_settings: chlorocebus sabaeus
result_type: CC50 at 72 h

• C=C(C)[C@@H]1CC[C@]2(C(=O)OC)CC[C@]3(C)[C@H](CC[C@@H]4[C@@]5(C)CC[C@H](OC(=O)C(C)C)C(C)(C)[C@@H]5CC[C@]43C)[C@@H]12 = > 400 µM
• C=C(C)[C@@H]1CC[C@]2(C(=O)OC)CC[C@]3(C)[C@H](CC[C@@H]4[C@@]5(C)CC[C@H](OC(C)=O)C(C)(C)[C@@H]5CC[C@]43C)[C@@H]12 = > 400 µM
• COC(=O)[C@]12CC[C@@H](C)[C@H](C)[C@H]1C1=CC[C@@H]3[C@@]4(C)CC[C@H](OC(=O)C(C)C)C(C)(C)[C@@H]4CC[C@@]3(C)[C@]1(C)CC2 = > 400 µM
• C=C(C)[C@@H]1CC[C@]2(C(=O)O)CC[C@]3(C)[C@H](CC[C@@H]4[C@@]5(C)CC[C@H](O)C(C)(C)[C@@H]5CC[C@]43C)[C@@H]12 [BETULINIC ACID] = > 400 µM
• CC(C)C(=O)O[C@H]1CC[C@]2(C)[C@H]3CC=C4[C@@H]5[C@@H](C)[C@H](C)CC[C@]5(C(=O)O)CC[C@@]4(C)[C@]3(C)CC[C@H]2C1(C)C = > 400 µM

====

method: Cytotoxicity against African green monkey Vero cells after 72 hrs by MTT assay
Type: cell-based
test_settings: chlorocebus sabaeus
Attribute: CC50 at 72 h
result_type: CC50 at 72 h

* CCCC(=O)O[C@H]1CC[C@]2(C)[C@H]3CC=C4[C@@H]5[C@@H](C)[C@H](C)CC[C@]5(C(=O)n5ccnc5)CC[C@@]4(C)[C@]3(C)CC[C@H]2C1(C)C | > 400 µM
* C[C@H]1[C@H](C)CC[C@]2(C(=O)n3ccnc3)CC[C@]3(C)C(=CC[C@@H]4[C@@]5(C)CCC(=O)C(C)(C)[C@@H]5CC[C@]43C)[C@H]12 | > 400 µM
* C[C@H]1[C@H](C)CC[C@]2(C(=O)O)CC[C@]3(C)C(=CC[C@@H]4[C@@]5(C)CCC(=O)C(C)(C)[C@@H]5CC[C@]43C)[C@H]12 | > 400 µM

====

Tested on: Plasmodium falciparum
method: Antiplasmodial activity against chloroquine-sensitive Plasmodium falciparum 3D7
Format: functional, organism-based
result_type: IC50 (µM)

• C=C(C)[C@@H]1CC[C@]2(C(=O)O)CC[C@]3(C)[C@H](CC[C@@H]4[C@@]5(C)CC[C@H](OC(=O)CCC)C(C)(C)[C@@H]5CC[C@]43C)[C@@H]12 = 5

====

method: Cytotoxicity against human HepG2 cells after 72 hrs by MTT assay
Assay type: cell-based
result_type: CC50 at 72 h

• C=C(C)[C@@H]1CC[C@]2(C(=O)n3ccnc3)CC[C@]3(C)[C@H](CC[C@@H]4[C@@]5(C)CC[C@H](OC(=O)C(C)C)C(C)(C)[C@@H]5CC[C@]43C)[C@@H]12 = > 400 µM
• COC(=O)[C@]12CC[C@@H](C)[C@H](C)[C@H]1C1=CC[C@@H]3[C@@]4(C)CC[C@H](OC(C)=O)C(C)(C)[C@@H]4CC[C@@]3(C)[C@]1(C)CC2 = > 400 µM
• C=C(C)[C@@H]1CC[C@]2(C(=O)O)CC[C@]3(C)[C@H](CC[C@@H]4[C@@]5(C)CCC(=O)C(C)(C)[C@@H]5CC[C@]43C)[C@@H]12 = 150 µM
• COC(=O)[C@]12CC[C@@H](C)[C@H](C)[C@H]1C1=CC[C@@H]3[C@@]4(C)CCC(=O)C(C)(C)[C@@H]4CC[C@@]3(C)[C@]1(C)CC2 = > 400 µM
• C=C(C)[C@@H]1CC[C@]2(C(=O)n3ccnc3)CC[C@]3(C)[C@H](CC[C@@H]4[C@@]5(C)CC[C@H](OC(C)=O)C(C)(C)[C@@H]5CC[C@]43C)[C@@H]12 = > 400 µM
• C=C(C)[C@@H]1CC[C@]2(C(=O)n3ccnc3)CC[C@]3(C)[C@H](CC[C@@H]4[C@@]5(C)CCC(=O)C(C)(C)[C@@H]5CC[C@]43C)[C@@H]12 = > 400 µM
